# ASSAY_EXPLANATION: viability gain of MRP-1-high H69AR cells under doxorubicin, pilot screen, MRP-1 activator project, CellTiter-Glo, duplicate (AID 807);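 also: compound pretreatment 18-22 h then 72 h combined with doxorubicin; 0% = doxorubicin alone and 100% = vehicle without doxorubicin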
# CONDITION_CONTEXT: H69AR viability with doxorubicin, CellTiter-Glo luminescence; at 10 µM; hits give high values
Calls of active or inactive are those of the source.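 The calls were made as follows: active = viability increase at or above a cutoff of the median across tested compounds plus 3 SD (cut at about 8.5% in these data, passing the limit was not always enough); inconclusive = some gains above the cutoff, reason not given; inactive = the rest.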
ENDPOINT_LABEL: viability increase

-- ask Provide only the value of recorded viability increase for CCCc1cc(C(=O)Nc2cccc(Cl)c2)no1
-- reply 0.77% (inactive)

-- ask Provide only the value of recorded viability increase for CCCCCOc1ccc(NC(=O)CCCC(=O)O)cc1
-- reply -0.75% (inactive)

-- ask Provide only the value of recorded viability increase for CCOc1ccc2nc(N3CCCC(C(=O)NCCCN4CCOCC4)C3)sc2c1 (centres undefined)
-- reply -2.55% (inactive)

-- ask Provide only the value of recorded viability increase for CC(=O)Nc1ccc(S(=O)(=O)N2CCN(c3ccc(C)c(Cl)c3)CC2)cc1
-- reply 0.47% (inactive)

-- ask Provide only the value of recorded viability increase for O=C(CC1c2ccccc2Oc2ccccc21)N1CCN(c2ccccn2)CC1
-- reply -3.24% (inactive)

-- ask Provide only the value of recorded viability increase for COc1ccc(NS(=O)(=O)c2ccc(OC)c(OC)c2)cc1OC
-- reply 0.52% (inactive)

-- ask Provide only the value of recorded viability increase for O=C(CCCc1ccccc1)NCc1cn2ccsc2n1
-- reply 0.97% (inactive)

-- ask Provide only the value of recorded viability increase for O=C(c1cccs1)n1cc(C(=S)N2CCOCC2)c2ccccc21
-- reply -0.89% (inactive)

-- ask Provide only the value of recorded viability increase for O=C(CN1CCN(C2CCCCC2)CC1)Nc1ccccc1N1CCCCC1
-- reply -4.35% (inactive)

-- ask Provide only the value of recorded viability increase for CC1CCN(CC(C)OC(=O)c2ccc3c(c2)OCCO3)CC1 (centres undefined)
-- reply -0.68% (inactive)

-- ask Provide only the value of recorded viability increase for Cc1c(/C=N/n2cnnc2)c2ccccc2n1C
-- reply -1.49% (inactive)

-- ask Provide only the value of recorded viability increase for Nc1sc2c(c1C(=O)NC1CCS(=O)(=O)C1)CCCC2 (centres undefined)
-- reply 0.13% (inactive)

-- ask Provide only the value of recorded viability increase for COc1ccc(C2c3c(oc4ccc(F)cc4c3=O)C(=O)N2CCN2CCOCC2)cc1OC (centres undefined)
-- reply -1.12% (inactive)

-- ask Provide only the value of recorded viability increase for COc1ccc(Cc2nnc(SC)[nH]c2=O)cc1OC
-- reply -1.67% (inactive)

-- ask Provide only the value of recorded viability increase for Brc1ccc(-c2nc(-c3ccccn3)no2)o1
-- reply -4.55% (inactive)

-- ask Provide only the value of recorded viability increase for COc1cccc(C2(O)CCN(C(=O)c3cccs3)CC2)c1
-- reply 0.71% (inactive)

-- ask Provide only the value of recorded viability increase for Cc1ccc(-c2nn(C)c(=O)c3ccccc23)cc1S(=O)(=O)N1CCCC1
-- reply -5.14% (inactive)

-- ask Provide only the value of recorded viability increase for Cc1cccc(-c2nc(CS(=O)CC(=O)NC3CCCC3)c(C)o2)c1 (centres undefined)
-- reply -3.32% (inactive)

-- ask Provide only the value of recorded viability increase for CCCCN(C)Cc1c(C)[nH]c2ccc(OCC)cc2c1=O
-- reply -0.94% (inactive)
